B1: C1orf55 (parent)
chain: FTSPDYQQQCHEMAERLEDSVLKG

# Variants of: B1
# RUN DESCRIPTION: protein stability index of a GFP-peptide fusion (GPS, HEK-293T) (PSI 1-6); higher = more stable;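 also: lentivirally expressed fusions sorted by FACS into six bins by GFP to DsRed ratio, PSI derived from sequencing read proportions per bin multiplied by bin number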
# ASSAY SETUP: c terminus: a fixed tail appended
MEASUREMENT TYPE: protein stability index
Write no unit; give the number alone.

Would you please look over these solved cases?
>  <CHANGES>
Q7M

>  <protein stability index>
2.01

$$$$
>  <CHANGES>
K23M

>  <protein stability index>
2.02

$$$$
>  <CHANGES>
Q7V

>  <protein stability index>
2.02

$$$$
>  <CHANGES>
M13F

>  <protein stability index>
1.85

$$$$
>  <CHANGES>
S3N

>  <protein stability index>
2.75

$$$$

Lab book: protein stability index of Y6K noted as 4.44

The recorded protein stability index for Y6T is 4.41

Sample S3C ; protein stability index observed: 2.83

Briefly, protein stability index measured for T2W : 3.04

// field: protein stability index; key: E15R ; value = 2.04
